biological target: Neprilysin (Homo sapiens, UniProt P08473)
Sequence (P08473 whole entry): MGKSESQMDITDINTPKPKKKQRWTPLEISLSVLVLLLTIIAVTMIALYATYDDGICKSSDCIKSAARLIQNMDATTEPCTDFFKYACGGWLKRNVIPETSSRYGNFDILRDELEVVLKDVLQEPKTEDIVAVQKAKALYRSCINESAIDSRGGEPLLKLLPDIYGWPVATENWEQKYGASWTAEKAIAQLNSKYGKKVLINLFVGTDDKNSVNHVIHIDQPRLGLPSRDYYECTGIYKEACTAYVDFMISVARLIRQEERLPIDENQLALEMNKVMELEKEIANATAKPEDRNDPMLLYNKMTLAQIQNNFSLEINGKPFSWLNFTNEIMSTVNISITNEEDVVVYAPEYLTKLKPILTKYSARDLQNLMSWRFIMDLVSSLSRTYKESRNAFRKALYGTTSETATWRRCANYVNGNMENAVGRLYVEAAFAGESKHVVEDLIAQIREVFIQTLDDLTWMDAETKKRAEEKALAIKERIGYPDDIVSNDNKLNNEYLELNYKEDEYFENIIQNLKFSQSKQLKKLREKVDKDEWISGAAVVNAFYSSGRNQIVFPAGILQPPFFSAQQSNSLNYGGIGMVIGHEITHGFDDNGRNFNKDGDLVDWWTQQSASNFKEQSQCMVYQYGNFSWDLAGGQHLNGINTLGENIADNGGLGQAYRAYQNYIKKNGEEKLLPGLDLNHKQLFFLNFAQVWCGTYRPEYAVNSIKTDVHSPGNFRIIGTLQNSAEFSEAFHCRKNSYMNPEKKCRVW
reported_endpoint: IC50 (nM)

structure=CCCCC(=O)N(Cc1ccc(-c2ccccc2-c2nnn[n-]2)cc1)[C@H](C(=O)[O-])C(C)C.CCOC(=O)[C@H](C)C[C@@H](Cc1ccc(-c2ccccc2)cc1)NC(=O)CCC(=O)[O-].O.O.[Na+].[Na+].[Na+] system_under_test="Neprilysin (Homo sapiens, UniProt P08473)" unit_tag=nM result=5

###

Measured Tmax of individual entries
assay: Tmax in human plasma; format: ADME, cell-free
reported_endpoint: Tmax (h)

structure=CCCCC(=O)N(Cc1ccc(-c2ccccc2-c2nnn[nH]2)cc1)[C@H](C(=O)O)C(C)C result=1.6
structure=CCOC(=O)[C@H](C)C[C@@H](Cc1ccc(-c2ccccc2)cc1)NC(=O)CCC(=O)O result=0.5
